Source listed as patent US20210230570.

- test.system: Factor X (FX), P00742
- Sequence (P00742 whole entry, looked up): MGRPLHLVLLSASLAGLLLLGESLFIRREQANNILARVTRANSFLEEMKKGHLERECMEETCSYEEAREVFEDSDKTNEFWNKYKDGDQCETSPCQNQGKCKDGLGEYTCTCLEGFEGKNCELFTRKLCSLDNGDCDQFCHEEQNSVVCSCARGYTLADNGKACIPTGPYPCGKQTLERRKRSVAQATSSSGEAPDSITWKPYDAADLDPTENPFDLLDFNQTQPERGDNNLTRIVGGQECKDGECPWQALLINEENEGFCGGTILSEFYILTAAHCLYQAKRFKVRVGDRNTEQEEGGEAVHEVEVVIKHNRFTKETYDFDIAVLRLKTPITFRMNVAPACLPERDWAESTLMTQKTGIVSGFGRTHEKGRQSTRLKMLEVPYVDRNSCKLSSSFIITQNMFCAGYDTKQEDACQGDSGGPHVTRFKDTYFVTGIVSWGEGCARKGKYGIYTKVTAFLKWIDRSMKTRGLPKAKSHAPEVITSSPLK
measurement.name: KM of FX activation by FIXa in the Xase complex (FVIIIa, PC/PS vesicles, Ca2+) (µM)

protein	unit.abbrev	recorded.value
FIXa variant D203N/F205T/R338E (mature FIX numbering) (protein) chain 1: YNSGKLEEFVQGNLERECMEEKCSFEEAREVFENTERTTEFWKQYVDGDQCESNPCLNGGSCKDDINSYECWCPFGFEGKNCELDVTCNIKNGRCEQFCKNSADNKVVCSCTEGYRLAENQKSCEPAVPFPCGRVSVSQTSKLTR chain 2: VVGGEDAKPGQFPWQVVLNGKVNATCGGSIVNEKWIVTAAHCVETGVKITVVAGEHNIEETEHTEQKRNVIRIIPHHNYNAAINKYNHDIALLELDEPLVLNSYVTPICIADKEYTNIFLKFGSGYVSGWGRVFHKGRSALVLQYLRVPLVDRATCLESTKFTIYNNMFCAGFHEGGRDSCQGDSGGPHVTEVEGTSFLTGIISWGEECAMKGKYGIYTKVSRYVNWIKEKTKLT	µM	0.0241
FIXa variant D104N/K106S/Y155F/R318Y/R338E/R403E/E410N (mature FIX numbering) (protein) chain 1: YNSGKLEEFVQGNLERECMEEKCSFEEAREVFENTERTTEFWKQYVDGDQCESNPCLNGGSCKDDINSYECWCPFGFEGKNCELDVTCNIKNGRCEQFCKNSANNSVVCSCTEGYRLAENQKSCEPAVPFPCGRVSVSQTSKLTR chain 2: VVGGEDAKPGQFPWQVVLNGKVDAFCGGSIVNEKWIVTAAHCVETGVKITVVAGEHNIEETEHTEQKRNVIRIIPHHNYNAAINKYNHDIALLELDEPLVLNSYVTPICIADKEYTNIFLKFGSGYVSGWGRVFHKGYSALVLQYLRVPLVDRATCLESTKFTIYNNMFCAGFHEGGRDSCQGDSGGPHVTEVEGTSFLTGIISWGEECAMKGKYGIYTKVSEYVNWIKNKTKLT	µM	0.048
